A collection of compounds and their measured GI50
Tested on: OVCAR-3 ovarian
Assay method text: NCI tumour cell line growth inhibition, 48 h

Study these solved cases before continuing.
Chem smiles | Target entity | GI50
Nc1ncnc2occ(-c3ccc(NC(=O)Nc4cccc(C(F)(F)F)c4)cc3)c12 | OVCAR-3 ovarian | 4.79 µM
O=C1/C(=C/c2ccc([N+](=O)[O-])s2)Oc2ccc(Br)cc21 | OVCAR-3 ovarian | 0.207 µM

Continue with the next compound.
Which GI50 is listed for `O=C(N/N=C/c1coc2ccc(Cl)cc2c1=O)c1cc(O)c(O)c(O)c1` ?
40.4 µM

###

System: MDA-MB-231 breast
Assay method text: NCI tumour cell line growth inhibition, 48 h
Quantity name: TGI (µM)
Give a bare numeral; the unit µM is implied.

Compound | Units of measure | TGI
C[C@H]1CCC/C=C/[C@@H]2C[C@H](O)C[C@H]2[C@H](O)C(O)C(O)C(=O)O1 (stereo not given in full) | µM | 4.84
COc1cc2c(/C=C3/C(=O)Nc4cc(C)c(O)cc43)c(Cl)[nH]c2cc1C | µM | 8.99
CN(C)Cc1cc(C(=O)/C=C/c2ccc(Cl)cc2Cl)cc(CN(C)C)c1O | µM | 6.53

Which TGI is listed for `O=C1c2c[n+](Cc3ccccc3)ccc2-c2nc3ccccc3c3ccnc1c23` ?
3.21

###

System: SF-539 CNS
Assay method text: NCI tumour cell line growth inhibition, 48 h; in the data active = GI50 below about 0.43 µM; inactive = the rest
Just give me one of these, please: t for active, f for inactive

Solved cases below.
Compound | Assigned class
Cc1nc2ccccc2c(/C=C/c2ccc(F)cc2)c1C(=O)/C=C/c1ccccc1 | f
O=S(=O)([O-])c1ccc(C=Nc2ccccc2)c([O-])c1.O=S(=O)([O-])c1ccc(C=Nc2ccccc2)c([O-])c1.[Co+2] | f
N#C/C(=C\c1ccccn1)c1nc2ccccc2o1 | f
CCOC(=O)c1ccc(N[C@@H]2c3cc4c(cc3C(c3cc(OC)c(O)c(OC)c3)[C@H]3C(=O)OCC32)OCO4)cc1 (stereo partly drawn) | t
O=[N+]([O-])c1cc2c(ccc3ccccc32)o1 | f

So what was the verdict on `CC(C)C[C@H](NC(=O)[C@@H](N)Cc1cccc2ccccc12)B(O)O` in this test?
t

So what was the verdict on COc1cc(/C=C2\CC3C4CC=C5C[C@@H](N6CCCC6)CC[C@]5(C)C4CC[C@]3(C)[C@H]2OC(C)=O)ccc1OCCCn1ccnc1 (stereo partly drawn) in this test?
t

So what was the verdict on `O=C1/C(=C/c2ccc([N+](=O)[O-])s2)Oc2ccc(Br)cc21` in this test?
t

###

Tested on: ACHN renal
Assay method text: NCI tumour cell line growth inhibition, 48 h
A collection of molecules and their measured TGI

Molecule | TGI
COc1ccc(C)cc1-c1ccc(-c2cc(C)ccc2OC)o1 | > 100 µM
N=c1oc2ccccc2cc1C(=O)Nc1ccccn1 | > 100 µM
N#C/C(=C\c1ccccn1)c1nc2ccccc2o1 | 46.6 µM
O=[N+]([O-])/C(C(Cl)=C(Cl)Cl)=C(\NCc1ccccc1)Sc1ccccc1 | > 100 µM

Which TGI is listed for `CN(C)c1ccc(-c2nc(N)nc3c2CCCC3)cc1` ?
76.9 µM

Which TGI is listed for `CN1C=C(C(N)=O)Cc2ccsc21` ?
> 100 µM

Which TGI is listed for `COc1cc2c(cc1OCCCN1CCOCC1)N=C[C@@H]1CCCN1C2=O` ?
92 µM
